Target: TgOAT
Details: time-dependent inactivators
Quick reference: kinact/KI of the listed items.
Please respond with the number in M⁻¹ s⁻¹ and leave the unit unwritten.

NC1C(F)CC(C(=O)O)C1Br (stereo not shown) [Compound 10]: 583
NC1CC(C(=O)O)CC1=CC(F)(F)F (stereo not shown) [Compound 3]: 83.3
NC1CC(C(=O)O)C=C1C(F)(F)C(F)(F)F (stereo not shown) [Compound 6]: 167

Now look at this one.
Given item NC1CC(C(=O)O)CC1Br (stereo not shown) [Compound 9] , the value recorded as its kinact/KI is 31.7

----------
Biological target: TgOAT
Details: read-out: Ki (reversible inhibition); reversible inhibitors; calculated from the IC50 value
pKi: −log10 of the molar value.
pKi values by entry

NCc1ccc(C(=O)O)s1: < 2.30
NCc1c[nH]c(C(=O)O)c1: < 2.30

Could you now consider this next compound?
Please fill in: pKi reported for NCc1cocc1C(=O)O = < 2.30
